src = patent US9868746B2

- assay system: mAChR M4 (Homo sapiens)
- Construct: expressed in transfected cells; host or cells: CHO-K1 cells stably transfected with M4 cDNA and chimeric G-protein Gqi5
- Sequence (P08173 1-479): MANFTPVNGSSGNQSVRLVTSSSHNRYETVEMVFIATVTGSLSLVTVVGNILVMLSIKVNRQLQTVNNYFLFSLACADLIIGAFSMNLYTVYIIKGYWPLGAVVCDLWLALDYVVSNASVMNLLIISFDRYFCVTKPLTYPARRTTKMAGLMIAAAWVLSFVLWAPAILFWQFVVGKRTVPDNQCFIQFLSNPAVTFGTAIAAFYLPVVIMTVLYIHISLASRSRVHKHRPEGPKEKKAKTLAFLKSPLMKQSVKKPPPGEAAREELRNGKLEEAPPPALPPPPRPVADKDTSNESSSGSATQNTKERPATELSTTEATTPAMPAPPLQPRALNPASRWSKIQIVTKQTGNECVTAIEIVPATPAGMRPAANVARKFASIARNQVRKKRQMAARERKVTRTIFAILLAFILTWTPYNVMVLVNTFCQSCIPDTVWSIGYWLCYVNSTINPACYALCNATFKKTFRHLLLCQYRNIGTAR
- experiment summary: mAChR M4 cell-based functional assay (calcium mobilization, potentiation of EC20 acetylcholine response)
- condition parameters: mAChR M4 cell-based functional assay; >10,000 estimated for low potency compounds without plateau; read-out: EC50
result type: EC50 (nM)
Your answer should be a plain number; it is taken to be in nM.

Q: Supply measured EC50 of Cc1ccc(S(=O)(=O)N2CCC(NC(=O)c3sc4nnc(C)c(C)c4c3N)C2)cc1 (stereo not shown) [Example B244] in your reply.
A: 580

---
Q: Supply measured EC50 of Cc1nnc2sc(C(=O)N3CC4CN(C(=O)OC(C)(C)C)CC4C3)c(N)c2c1C (stereo not shown) [Example B259] in your reply.
A: 900

Q: Supply measured EC50 of Cc1nnc2sc(C(=O)N3CC(F)(c4ccc(S(=O)(=O)CF)cc4)C3)c(N)c2c1C [Example B393] in your reply.
A: 400

Q: Supply measured EC50 of Nc1c(C(=O)NCc2cccc(F)c2F)sc2nnc3c(c12)CCCC3 [Example B57] in your reply.
A: 100
